Molecular target: T1, Flt-1 (1-3) monomer (UniProt P17948 27-331, limits assumed, biotin-labeled in the ELISA of Example 8)
T1 construct: domain: domains 1 to 3; Genentech reagent; also called Flt(1-3); domains 1 to 3 of Flt-1
T1 sequence (P17948 27-331 limits assumed): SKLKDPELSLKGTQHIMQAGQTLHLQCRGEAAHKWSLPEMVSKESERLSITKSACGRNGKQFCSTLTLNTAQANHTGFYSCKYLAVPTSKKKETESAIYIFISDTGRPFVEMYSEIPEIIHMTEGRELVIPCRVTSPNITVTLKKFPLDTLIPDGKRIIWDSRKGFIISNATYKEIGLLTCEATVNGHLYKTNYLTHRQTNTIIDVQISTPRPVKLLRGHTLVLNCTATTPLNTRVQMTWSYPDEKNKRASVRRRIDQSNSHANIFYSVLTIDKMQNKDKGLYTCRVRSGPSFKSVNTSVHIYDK
Test: competition ELISA: plate coated with VEGF (8-109), 100 pM biotin-labeled Flt1(1-3), serial dilutions of the competing VEGF (Example 8)
Lab note: compare fold reduction in binding (IC50 variant / IC50 VEGF(1-109)) with 3 fold, writing 1 if less and 0 if equal or more.

- binder: "His 86** (ligand) APMAEGGGQNHHEVVKFMDVYQRSYCHPIETLVDIFQEYPDEIEYIFKPSCVPLMRCGGCCNDEGLECVPTEESNITMQIMRIKPAQGQHIGEMSFLQHNKCECRPKKD"
  cat: 1
- binder: "Gln 89 (ligand) APMAEGGGQNHHEVVKFMDVYQRSYCHPIETLVDIFQEYPDEIEYIFKPSCVPLMRCGGCCNDEGLECVPTEESNITMQIMRIKPHQGAHIGEMSFLQHNKCECRPKKD"
  cat: 1
- binder: "Met 18** (ligand) APMAEGGGQNHHEVVKFADVYQRSYCHPIETLVDIFQEYPDEIEYIFKPSCVPLMRCGGCCNDEGLECVPTEESNITMQIMRIKPHQGQHIGEMSFLQHNKCECRPKKD"
  cat: 0
- binder: "Met 81** (ligand) APMAEGGGQNHHEVVKFMDVYQRSYCHPIETLVDIFQEYPDEIEYIFKPSCVPLMRCGGCCNDEGLECVPTEESNITMQIARIKPHQGQHIGEMSFLQHNKCECRPKKD"
  cat: 0
- binder: "Pro 106 (ligand) APMAEGGGQNHHEVVKFMDVYQRSYCHPIETLVDIFQEYPDEIEYIFKPSCVPLMRCGGCCNDEGLECVPTEESNITMQIMRIKPHQGQHIGEMSFLQHNKCECRAKKD"
  cat: 1
- binder: "Ile 83* (ligand) APMAEGGGQNHHEVVKFMDVYQRSYCHPIETLVDIFQEYPDEIEYIFKPSCVPLMRCGGCCNDEGLECVPTEESNITMQIMRAKPHQGQHIGEMSFLQHNKCECRPKKD"
  cat: 0
- binder: "Ile 91 (ligand) APMAEGGGQNHHEVVKFMDVYQRSYCHPIETLVDIFQEYPDEIEYIFKPSCVPLMRCGGCCNDEGLECVPTEESNITMQIMRIKPHQGQHAGEMSFLQHNKCECRPKKD"
  cat: 1
